experimental target: isolated recombinant JAK2 kinase domain (Homo sapiens, UniProt O60674)
Construct: The activity of the isolated recombinant JAK1 and JAK2 kinase domain was measured
Sequence (O60674 849-1124 limits assumed): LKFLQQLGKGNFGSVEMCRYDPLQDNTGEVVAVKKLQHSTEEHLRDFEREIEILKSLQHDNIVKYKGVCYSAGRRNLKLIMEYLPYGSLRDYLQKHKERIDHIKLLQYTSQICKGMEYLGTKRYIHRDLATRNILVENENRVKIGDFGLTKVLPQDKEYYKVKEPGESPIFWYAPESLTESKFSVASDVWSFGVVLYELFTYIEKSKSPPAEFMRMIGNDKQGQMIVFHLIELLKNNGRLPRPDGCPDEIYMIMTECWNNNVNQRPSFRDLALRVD
measurement description: JAK2 enzyme assay (Caliper LabChip, Ki)
condition summary: 25 μM ATP
Experimental: JAK Enzyme Assays were Carried Out as Follows: The activity of the isolated recombinant JAK1 and JAK2 kinase domain was measured by monitoring phosphorylation of a peptide derived from JAK3 (Val-Ala-Leu-Val-Asp-Gly-Tyr-Phe-Arg-Leu-Thr-Thr, fluorescently labeled on the N-terminus with 5-carboxyfluorescein) using the Caliper LabChip® technology (Caliper Life Sciences, Hopkinton, Mass.). […]
assay endpoint: Ki (nM)
All answers are understood in nM, so give the number only.

Solved entries:
>>> value_measured("CC(C)Sc1ccc(OC(F)F)c(-c2nn(CC(=O)N3CCN(C4CCOC4)CC3)cc2NC(=O)c2cnn3cccnc23)c1 (stereo not shown)")
1.2
>>> value_measured("CC(C)Sc1ccc(OC(F)F)c(-c2nn(CC(=O)N3CCC(CN4CCOCC4)CC3)cc2NC(=O)c2cnn3cccnc23)c1")
1.2
>>> value_measured("CSc1ccc(OC(F)F)c(-c2nn(CCN[C@@H]3CCCOC3)cc2NC(=O)c2cnn3cccnc23)c1")
0.19
>>> value_measured("COC(=O)N1CCN(CC2CCN(C(=O)Cn3cc(NC(=O)c4cnn5cccnc45)c(-c4cc(SC)ccc4OC(F)F)n3)CC2)CC1")
0.44
>>> value_measured("CSc1ccc(OC(F)F)c(-c2nn(CC(=O)N3CCN(C4CCOCC4)CC3)cc2NC(=O)c2cnn3cccnc23)c1")
0.32

We now examine a further compound.
Supply recorded Ki for "CC(C)Sc1ccc(OC(F)F)c(-c2nn(CC(=O)N3CCN(CC4(C)COC4)CC3)cc2NC(=O)c2cnn3cccnc23)c1" here.
0.97

----------
experimental target: isolated recombinant JAK2 kinase domain (Homo sapiens)
Construct: The activity of the isolated recombinant JAK1 and JAK2 kinase domain was measured
measurement description: JAK2 enzyme assay (Caliper LabChip, Ki)
condition summary: 25 μM ATP
Define the label as YES when Ki is strictly less than 0.4 nM and as NO in all remaining cases.

Look over these answered cases.
>>> group_label("CCSc1ccc(OC(F)F)c(-c2nn(CC(=O)N3CCC(N4CCOCC4)CC3)cc2NC(=O)c2cnn3cccnc23)c1")
"NO"
>>> group_label("CSc1ccc(OC(F)F)c(-c2nn(CC(=O)N3CCC(N4CCS(=O)(=O)CC4)CC3)cc2NC(=O)c2cnn3cccnc23)c1")
"YES"
>>> group_label("CSc1ccc(OC(F)F)c(-c2nn(CC(=O)N3CCC(N4CCN(C)C(=O)C4)CC3)cc2NC(=O)c2cnn3cccnc23)c1")
"YES"
>>> group_label("CSc1ccc(OC(F)F)c(-c2nn(CC(=O)N3CC4CCN(C)C4C3)cc2NC(=O)c2cnn3cccnc23)c1 (stereo not drawn)")
"YES"
>>> group_label("Cn1cc(NC(=O)c2cnn3cccnc23)c(-c2cc(SC(CF)CF)ccc2OC(F)F)n1")
"YES"
>>> group_label("CSc1ccc(OC(F)F)c(-c2nn(CC(=O)N3CCC(NCC(C)C#N)CC3)cc2NC(=O)c2cnn3cccnc23)c1 (stereo not drawn)")
"YES"
>>> group_label("CSc1ccc(OC(F)F)c(-c2nn(CC(=O)N3CCN(C4CCSCC4)CC3)cc2NC(=O)c2cnn3cccnc23)c1")
"YES"
>>> group_label("CSc1ccc(OC(F)F)c(-c2nn(CCN[C@H]3C[C@H](O)C3)cc2NC(=O)c2cnn3cccnc23)c1")
"YES"
>>> group_label("CSc1ccc(OC(F)F)c(-c2nn(CC(=O)N3CCC(CN4CCC[C@H]4C(=O)N(C)C)CC3)cc2NC(=O)c2cnn3cccnc23)c1")
"NO"
>>> group_label("N#CC1(CNC2CCN(C(=O)Cn3cc(NC(=O)c4cnn5cccnc45)c(-c4cc(SC5COC5)ccc4OC(F)F)n3)CC2)CC1")
"NO"

Hello, is Ki of the following compound strictly smaller than 0.4 nM? "CSc1ccc(OC(F)F)c(-c2nn(CC(=O)N3CCC(N4CC5CC(C4)O5)CC3)cc2NC(=O)c2cnn3cccnc23)c1"
YES

# strict comparison: is reported Ki < 0.4 nM? input = "CSc1ccc(OC(F)F)c(-c2nn(CC(=O)N3CCC(OCC(=O)N4CCN(C)CC4)CC3)cc2NC(=O)c2cnn3cccnc23)c1"
NO

Check if Ki falls below 0.4 nM for "CC(C)Sc1ccc(OC(F)F)c(-c2nn(CC(=O)N3CCN(C4CCOCC4)CC3)cc2NC(=O)c2cnn3cccnc23)c1" .
NO

Say whether its Ki is strictly beneath 0.4 nM. Entry: CSc1ccc(OC(F)F)c(-c2nn(CC(=O)N3CCC(N4CCC(C#N)C4)CC3)cc2NC(=O)c2cnn3cccnc23)c1 (stereo not drawn)
YES

Does this compound meet the criterion Ki < 0.4 nM? "CC(C)Sc1ccc(OC(F)F)c(-c2nn(CC(=O)N3CCN(C4CCN(CC(=O)N(C)C)CC4)CC3)cc2NC(=O)c2cnn3cccnc23)c1"
NO

Strictly below 0.4 nM: is that where Ki of "O=C(Nc1cn(CCN[C@H]2C[C@H](O)C2)nc1-c1cc(SC2COC2)ccc1OC(F)F)c1cnn2cccnc12" sits?
NO

Check if Ki falls below 0.4 nM for "CSc1ccc(OC(F)F)c(-c2nn(CCNC3COC3)cc2NC(=O)c2cnn3cccnc23)c1" .
YES

# TODO verify Ki < 0.4 nM strictly for this compound: CSc1ccc(OC(F)F)c(-c2nn(Cc3cn(C4CCN(C5CCOC5)CC4)nn3)cc2NC(=O)c2cnn3cccnc23)c1 (stereo not drawn)
YES
